Reference source for all entries: PubChem BioAssay AID504357

Target: Mu-type opioid receptor (Homo sapiens) + Delta-type opioid receptor (Homo sapiens) (UniProt P35372+P41143)
Sequence (P35372 whole entry, looked up): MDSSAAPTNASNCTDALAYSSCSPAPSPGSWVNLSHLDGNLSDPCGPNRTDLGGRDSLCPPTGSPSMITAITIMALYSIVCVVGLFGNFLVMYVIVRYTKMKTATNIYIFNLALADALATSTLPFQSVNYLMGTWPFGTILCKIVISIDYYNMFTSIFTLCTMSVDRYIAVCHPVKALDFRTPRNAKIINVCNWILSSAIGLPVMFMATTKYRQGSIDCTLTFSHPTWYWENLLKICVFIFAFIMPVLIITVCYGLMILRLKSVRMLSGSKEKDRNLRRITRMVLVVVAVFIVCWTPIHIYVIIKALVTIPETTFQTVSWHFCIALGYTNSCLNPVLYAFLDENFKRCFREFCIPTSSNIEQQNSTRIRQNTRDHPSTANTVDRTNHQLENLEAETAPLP
Sequence (P41143 whole entry, looked up): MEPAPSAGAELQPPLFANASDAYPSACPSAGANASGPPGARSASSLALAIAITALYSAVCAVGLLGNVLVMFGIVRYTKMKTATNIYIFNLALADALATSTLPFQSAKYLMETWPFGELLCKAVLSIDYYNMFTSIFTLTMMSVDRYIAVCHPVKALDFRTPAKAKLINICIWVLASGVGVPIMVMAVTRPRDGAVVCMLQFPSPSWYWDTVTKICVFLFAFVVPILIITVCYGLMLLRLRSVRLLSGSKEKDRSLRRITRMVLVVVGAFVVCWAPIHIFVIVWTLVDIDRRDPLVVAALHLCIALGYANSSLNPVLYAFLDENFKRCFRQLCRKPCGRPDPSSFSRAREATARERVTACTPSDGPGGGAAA
Experiment: OPRM1-OPRD1 heterodimer inverse agonism – cell-based, luminescence, primary screen (AID 504357);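 further: 0% = cells with DMSO and 100% = wells without cells with DMSO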
Conditions: cell-based MOR-DOR heterodimer luminescence, at 9.3 µM
In all, about 340,000 compounds went through this assay and about 700 (0.21%) were called active. No stated cut-off is given here; in the data, active means inhibition above about 22% (passing the limit was not always enough); inactive means the rest. The full list was thinned out, with actives kept by preference.
Outcomes: true for active, false for inactive

- COc1ccc(NC(=O)c2cccc3c2C(=O)N(CC2CCCO2)C3)cc1OC (stereo unspecified): false
- O=C(CC(=O)c1cccnc1)c1ccccc1: false
- O=C(NNC(=O)c1ccc(Cl)cc1Cl)c1cccs1: false
- Cc1ccc(NNC(=O)c2cccs2)cc1Cl: true
- Cc1ccc2c(c1)C(O)(CC(=O)c1cccnc1)C(=O)N2 (stereo unspecified): true
- CCOc1ccc(NC(=O)c2ccc(NC(=O)C3CCCO3)cc2)cc1 (stereo unspecified): false
- Cc1ccc(NC(=O)c2cccs2)cc1S(=O)(=O)N(C)C: false
- CN(C)c1cc(N)c2ccccc2n1 (tested in a mixture with another compound): false
- Cc1cccc(N=Nc2c(O)[nH]c3ccc(F)cc23)c1: true
- Oc1[nH]c2ccccc2c1N=Nc1c(F)c(F)c(F)c(F)c1F: false
- CCOc1ccc(NC(=O)c2cccc3c2C(=O)N(CC2CCCO2)C3)cc1 (stereo unspecified): true

---

Molecular target: Mu-type opioid receptor (Homo sapiens) + Delta-type opioid receptor (Homo sapiens) (UniProt P35372+P41143)
Test: OPRM1-OPRD1 heterodimer inverse agonism – cell-based, luminescence, primary screen (AID 504357);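 further: 0% = cells with DMSO and 100% = wells without cells with DMSO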
Details: cell-based MOR-DOR heterodimer luminescence, at 9.3 µM, active compounds read high
The whole screen tested about 340,000 compounds, of which about 700 (0.21%) were called active. The full list was thinned out, with actives kept by preference.
measuredAttribute: inhibition (%)

• CC(C)OC(=O)CN1C(=O)C(=O)c2ccccc21 = 96.4
• COc1cccc(C(CC(=O)NCCN2CCOCC2)NS(=O)(=O)c2ccc(C)cc2)c1OC (stereo unspecified) = 4.11
• COC(=O)Cc1ccc(NC(=S)NCc2ccccc2)cc1 = 5.98
• Nc1nnc(C2CCCC2)s1 = 11.4
• CCN(CC)C(=O)CN(c1cccc(OC)c1)S(=O)(=O)c1ccc(C)cc1 = 13
• Cc1nccn1CCC1CCCCN1C(=O)CCc1nnc(-c2ccsc2)o1 (stereo unspecified) = 11.7

---

Target: Mu-type opioid receptor (Homo sapiens) + Delta-type opioid receptor (Homo sapiens) (UniProt P35372+P41143)
Assay: OPRM1-OPRD1 heterodimer inverse agonism – cell-based, luminescence, primary screen (AID 504357);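 further: 0% = cells with DMSO and 100% = wells without cells with DMSO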
Conditions: cell-based MOR-DOR heterodimer luminescence, at 9.3 µM, active compounds read high
Screen size: about 340,000 compounds; about 700 (0.21%) were called active. This excerpt belongs to a sample that is enriched for actives.
As shown below, each of these compounds has a reported inhibition value.
measuredAttribute: inhibition (%)

• CC(C)NC(=O)CSc1nnc(COc2ccccc2Cl)o1 = 16.3
• CCSC1=NCCN1S(=O)(=O)c1ccc(F)cc1 = 2.33
• CCOC(=O)c1cccc(NC(=O)C2CCN(c3ncnc4c3nc3n4CCCCC3)CC2)c1 = -0.14
• O=C1C(=O)N(c2ccccc2)c2ccccc21 = 47.8
• CN(c1ccccc1)S(=O)(=O)c1cc(C(=O)N2CCN(c3ncccn3)CC2)ccc1Cl = 2.36
• COc1ccccc1CN1CCCC(N2CCN(c3ccc(F)cc3)CC2)C1 (stereo unspecified) = 8.79

---

Biological target: Mu-type opioid receptor (Homo sapiens) + Delta-type opioid receptor (Homo sapiens) (UniProt P35372+P41143)
Assay: OPRM1-OPRD1 heterodimer inverse agonism – cell-based, luminescence, primary screen (AID 504357);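 further: 0% = cells with DMSO and 100% = wells without cells with DMSO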
Settings: cell-based MOR-DOR heterodimer luminescence, at 9.3 µM, active compounds read high
In all, about 340,000 compounds went through this assay and about 700 (0.21%) were called active. The sample as a whole holds a higher share of actives than the screen did.
Measured inhibition, listed per entry.
measuredAttribute: inhibition (%)

* Cc1ccc(NC(=S)Nc2ccc(F)cc2)cc1 | 9.82
* Cn1nc([N+](=O)[O-])nc1Sc1ccc(C(C)(C)C)cc1 | -22.7
* CNS(=O)(=O)c1ccc(N2CCCC2=O)c([N+](=O)[O-])c1 | -2.31
* Cc1ccc(C(=O)CNc2ccc(F)cc2)cc1 | 42.7
* C/C(O)=C\c1nc(=O)c2c(C)cc(C)nc2n1-c1ccccc1 | -10.5
* O=C(C1CC(=O)N(c2ccc(F)cc2)C1)N1CCN(c2ccccc2)CC1 (configuration not stated) | 14
* O=C(COC(=O)Cn1cnc2ccccc2c1=O)NCC12CC3CC(CC(C3)C1)C2 | 0.67
* C=CCN1C(=O)C(O)(CC(=O)c2ccc(Cl)cc2)c2ccccc21 (configuration not stated) | 12
* CCOC(=O)CN1C(=O)C(O)(CC(=O)c2ccccn2)c2ccccc21 (configuration not stated) | 49.5
* O=C(NCCSc1ncc(-c2ccccc2)[nH]1)c1ccco1 | 13.1
* CN(c1ccccc1)S(=O)(=O)c1ccc(NC(=O)COc2ccccc2)cc1 | 31.1
* O=C(NC1CCCCCCC1)c1cccs1 | -15.7
* CC(C)CCSc1ncnc2c1oc1nc3c(cc12)COC(C)(C)C3 | 5.61
* C=CCN1C(=O)C(O)(CC(=O)c2ccccn2)c2ccccc21 (configuration not stated) | 15.1
* Cc1cc(C)c(S(=O)(=O)n2cc(C(C)C(N)C(=O)O)c3ccccc32)c(C)c1 (configuration not stated) | 8.06
* Cc1ccc(CN(CC(=O)NCC2CCCO2)S(=O)(=O)c2ccc(C)cc2)cc1 (configuration not stated) | 10.1
* O=C(COc1ccccc1)Nc1ccc(F)cc1 | 7.72

---

Target: Mu-type opioid receptor (Homo sapiens) + Delta-type opioid receptor (Homo sapiens) (UniProt P35372+P41143)
Assay: OPRM1-OPRD1 heterodimer inverse agonism – cell-based, luminescence, primary screen (AID 504357);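 further: 0% = cells with DMSO and 100% = wells without cells with DMSO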
Details: cell-based MOR-DOR heterodimer luminescence, at 9.3 µM
Out of some 340,000 compounds screened, about 700 (0.21%) were called active. Rule as the data show it: active = inhibition above about 22% (passing the limit was not always enough); inactive = the rest. This is one part of a sample in which actives are shown more often than they occur.
Outcomes: 1 for active, 0 for inactive

- CC(NC(=O)c1ccccc1)C(=O)Nc1ccccc1 (centres undefined): 0
- CSCCC(NC(=O)COc1ccccc1)C(=O)OCc1ccc(Cl)cc1 (centres undefined): 0
- CCn1cc(CCC(=O)NCc2ccc(F)cc2)c2ccccc21: 0
- Cc1cccc(C2c3[nH]c4ccccc4c3CCN2C(=O)c2cc(-c3cccn3C)n[nH]2)n1 (centres undefined): 0
- CCOC(=O)c1c(-n2cnnn2)sc(C)c1C: 0
- Cc1ccc2nc(SCc3nnc(-c4ccccc4[N+](=O)[O-])o3)c(C#N)cc2c1: 0
- CCCCC(=O)NNC(=S)NC(=O)C(c1ccccc1)c1ccccc1: 1
- Cc1ccc(S(=O)(=O)Oc2ccc(/C=N/NC(=O)c3c(Cl)cnn3C)cc2)cc1: 0
- Cc1ccccc1NC(=O)CSC1=NCCN1: 0
- CCc1noc(C)c1C(=O)N1CCN(S(=O)(=O)c2cccc(C(F)(F)F)c2)CC1: 0
- COc1ccc(-n2c(O)c(C=NCC(c3ccco3)N3CCCC3)c3ccccc3c2=O)cc1OC (centres undefined): 0
- COc1cccc(-c2ccc(C#N)c(SCC(=O)NCCc3ccc(Cl)cc3)n2)c1: 0
- COc1cc2sc(C)nc2cc1C: 0
- CCc1c(Nc2ccccc2C)nc(N)[nH]c1=O: 0
- CCOC(=O)N1CCN(C(=O)c2ccccc2N(Cc2ccccc2)S(=O)(=O)c2ccc(OC)cc2)CC1: 0
- COc1cc(/C=C/C(=O)N2CCc3ccccc3C2)cc(OC)c1OC: 0
- CSCCC(NC(=O)COc1ccccc1)C(=O)OCCOc1ccc(Br)cc1 (centres undefined): 0
- Cc1cc(=O)oc2c1c(C)nn2-c1ccc(Cl)cc1: 0
- O=C(CCc1[nH]c2ccccc2c1Sc1ccccc1)N(CCO)CCO: 0
- O=C1C[C@@H]2c3c(cccc3CN1Cc1ccccc1)C[C@@H](O)[C@H]2O: 0
- CCN(CC(=O)NCc1ccco1)S(=O)(=O)c1ccc(F)cc1: 0
- Cc1ccc(Oc2cc(NC(=O)CCCn3nc(C)c([N+](=O)[O-])c3C)cc([N+](=O)[O-])c2)cc1: 0
- O=C(NCC1COc2ccccc2O1)C1(c2ccccc2)CCCC1 (centres undefined): 0
- COC(=O)CSc1nc2c(c(C3CC=CCC3)c1C#N)CCC2 (centres undefined): 0
- O=C1C(Cc2ccc(O)cc2)NC(=S)N1Cc1ccccc1 (centres undefined): 0
- O=C(O)c1ccc(S(=O)(=O)N2CCOCC2)o1: 0
- CSCCC(NC(=O)COc1ccccc1)C(=O)OCC(=O)c1cc2ccccc2o1 (centres undefined): 1
- CCCCCC(=O)NC(=S)NNC(=O)c1ccc([N+](=O)[O-])cc1: 0
- Cc1ccccc1C(CC(=O)c1cccs1)C(C#N)C#N (centres undefined): 0
- CSc1ccc(Cl)c(C(=O)OCC(=O)N2CCNC2=O)c1: 0
- COc1cc(NS(=O)(=O)c2ccc3ccccc3c2)c2ncccc2c1: 1
- COc1c(C=O)c(CCN(C)C(=O)c2ccc(F)cc2)cc2c1OCO2: 0
- CCOc1ccc(NC(=O)CN(C)CC(=O)NC(C)c2ccccc2)cc1OCC (centres undefined): 0
- COC(=O)[C@H]1Cc2cnoc2C[C@]1(C)C(=O)O: 0
- O=C(CN1C(=O)C2C3C=CC(C3)C2C1=O)NCC1COc2ccccc2O1 (centres undefined): 0
- COC(=O)C1(CCSC)NC(c2ccc(OC)cc2OC)C2C(=O)N(c3cccc(C(C)=O)c3)C(=O)C21 (centres undefined): 0
- CC1CC2=C(CC1/C=N/NC(N)=S)C(C)(C)CCC2 (centres undefined): 0
- Cc1ccc(S(=O)(=O)N2CCOCC2)cc1C(=O)NC(=S)N(Cc1ccccc1)C(C)C: 0
- COc1ccc(CNCCCn2cnc3c(OCc4ccccc4)ncnc32)cc1: 0
- Cc1cccc(-n2c(SCC(N)=O)nc3c(c2=O)C2(CCCCC2)Cc2ccccc2-3)c1: 0
- Cc1ccc(Nc2nnc(SC(C)C(=O)NC3CC3)s2)cc1 (centres undefined): 0
- Cc1nc2nc(SCC(=O)Nc3cccc(F)c3)[nH]c2cc1Br: 0
- Cc1cccc(C)c1NC(=O)CN(C)C(=O)CCC(=O)c1ccccc1: 0
- O=S(=O)(NCc1ccccc1)c1ccc(S(=O)(=O)N2CCCC2)cc1: 0
